Experiment: Tmax in mouse
Type: ADME, organism-based
Details: in vivo
endpoint_name: Tmax (min)
# value in min; strip the unit string

// query Tmax value for entry O=C(/C=C/c1ccc2c(c1)C(=O)CC1(CCN(Cc3ccccc3)CC1)O2)NO
15

* * *

Experiment: AUC (0 to infinity) in CD1 mouse at 5 mg/kg, iv
Type: ADME, organism-based
Set-up: time infinity, dose 5 mg/kg, route intravenous
Details: plasma
endpoint_name: AUC(0-inf)
Please state the value followed by its unit.

// query AUC(0-inf) value for entry O=C(/C=C/c1ccc2c(c1)C(=O)CC1(CCN(Cc3ccccc3)CC1)O2)NO
847 ng·h/mL

* * *

endpoint_name: pIC50
As a rule, pIC50 stands for the negative log10 of the concentration, concentration in M.

Which pIC50 is reported with Histone deacetylase 4 (Homo sapiens, UniProt P56524) for this entry: O=C(/C=C/c1ccc2c(c1)C(=O)CC1(CCN(Cc3ccccc3)CC1)O2)NO ?
6.90
